Test: endothelial E-selectin expression blockers – imaging, HUVEC, immunofluorescence, MLSMR starter and 10KST1 sets, primary screen (AID 487);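 note: signal is fraction of cell area covered by stained E-selectin grains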
Conditions: HUVEC TNFalpha-induced E-selectin immunofluorescence imaging, at 2 µM; hits give high values
// reported inhibition per item
Number in %, nothing else.

{"columns": ["compound", "outcome measure", "value units", "numeric result"],
 "data": [
  ["CCOC(=O)/C=C(\\C)Sc1cc(=O)oc2ccccc12", "inhibition", "%", -103],
  ["CC1CCN(C(=O)C2CCN(S(=O)(=O)c3cnc[nH]3)CC2)CC1", "inhibition", "%", -170],
  ["COc1nc(N2CCOCC2)nc(-n2cccc2)n1", "inhibition", "%", 52.3]
]}

Would you kindly look at the next entry?
Task: // lookup inhibition for `O=C(CSc1nnnn1-c1ccccc1)Nc1nsc(-c2ccc(Cl)cc2)n1`
Output: 59.2
